assay target: histamine H4 receptor (Homo sapiens, UniProt Q9H3N8)
Construct: expressed in transfected cells
Sequence (Q9H3N8 whole entry, species assumed): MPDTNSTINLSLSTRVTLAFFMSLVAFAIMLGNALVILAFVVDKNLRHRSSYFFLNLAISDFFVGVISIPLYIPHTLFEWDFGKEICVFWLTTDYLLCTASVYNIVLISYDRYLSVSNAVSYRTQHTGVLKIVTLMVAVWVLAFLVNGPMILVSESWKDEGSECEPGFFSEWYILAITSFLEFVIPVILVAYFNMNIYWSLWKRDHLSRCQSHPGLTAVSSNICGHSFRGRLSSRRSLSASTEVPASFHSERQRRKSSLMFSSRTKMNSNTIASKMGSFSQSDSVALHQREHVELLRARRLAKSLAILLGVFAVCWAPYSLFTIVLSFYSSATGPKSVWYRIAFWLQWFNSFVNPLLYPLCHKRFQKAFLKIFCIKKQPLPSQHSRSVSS
assay summary: in vitro assay of histamine H4 activity using FLIPR-Ca+2 flux
Format: cell-based
condition summary: HEK-293 cells stably expressing histamine H4 receptor and Gαqi5, Fluo-4; Kb for antagonists and inverse agonists, EC50 for partial agonists
Returns label 1 if the recorded Potency is greater than or equal to 90 nM, and label 0 otherwise.

State whether the measured Potency reaches 90 nM, counting equality as reaching it, for CN1CCCN(c2nc(N)nc3c2CCC2=C3C3CCCCC3O2)CC1 (centres unmarked)
label 0

Decide: is the reported value of Potency for Nc1nc2c(c(N3CCNCC3)n1)CCC1=C2C2CCCCC2O1 (centres unmarked) equal to or greater than 90 nM?
label 0

State whether the measured Potency reaches 90 nM, counting equality as reaching it, for CNC1CN(c2nc(N)nc3c2CC[C@@H]2CCCC[C@H]32)C1 (relative stereo)
label 0

Say whether Nc1nc2c(c(N3CC4CCCNC4C3)n1)CCC1CCCCC21 (centres unmarked) shows Potency of 90 nM or more.
label 0

Could you please find out whether CN[C@@H]1CCN(c2nc(N)nc3c2CCC2=C3C3CCCCC3O2)C1 (some centres unmarked) has Potency that meets 90 nM or exceeds it?
label 0

Is Potency at least 90 nM? Consider CC(C)N1CCCN(c2nc(N)nc3c2CCC2=C3C3CCCCC3O2)CC1 (centres unmarked)
label 1

###

So I've got a bunch of compounds here, and I need their Potency values.
assay target: histamine H4 receptor (Homo sapiens, UniProt Q9H3N8)
Construct: expressed in transfected cells
assay summary: in vitro assay of histamine H4 activity using FLIPR-Ca+2 flux
Type: cell-based
condition summary: HEK-293 cells stably expressing histamine H4 receptor and Gαqi5, Fluo-4; Kb for antagonists and inverse agonists, EC50 for partial agonists
Express it in nM; write the number only.

// recorded Potency for Nc1nc2c(c(N3CC[C@@H](N)C3)n1)CC[C@@H]1CCCC[C@@H]21 (mixture of isomers) : 1.2

Entry Nc1nc2c(c(N3CCNCC3)n1)CC[C@@H]1CCCC[C@H]21 (relative stereo) , Potency reported as 3.3

Record Nc1nc2c(c(N3CCNCC3)n1)CC[C@@H]1CCCC[C@@H]21 (relative stereo) . Reported Potency: 6.9

Data point: CN1CCN(c2nc(N)nc3c2CCC2=C3C3CCCCC3O2)CC1 (centres unmarked) ; Potency = 25

Please fill in: Potency reported for CN[C@@H]1CCN(c2nc(N)nc3c2CCCC2C4CCC(CC4)C32)C1 (some centres unmarked) = 21.9

Lab note: measured Potency of CNC1CN(c2nc(N)nc3c2CC[C@@H]2CCCC[C@@H]32)C1.O=C(O)C(F)(F)F.O=C(O)C(F)(F)F (relative stereo) was 1.5

Memo: Nc1nc2c(c(N3CCCN(C4CCC4)CC3)n1)CCC1=C2C2CCCCC2O1 (centres unmarked) , reported Potency: 2000

// field: Potency; key: CCNC1CN(c2nc(N)nc3c2CC[C@@H]2CCCC[C@H]32)C1 (relative stereo) ; value = 3.0

Origin of values: patent US8278311B2
